experiment: STM_H9_CystineISnorm_perc: Stemina devTOX quickPredict H9 human embryonic stem cell (hESC)-based Assay for Cystine (CYSS) Metabolite Biomarker, Normalized (AID 2283713)
The source made the active and inactive calls. The calls were made as follows: active = hit-call score of the fitted dose curve at least 0.9, where 1 is the maximum; inactive = score below 0.9.
Labels: active, inactive

> print(dat)
                           compound.smiles  category
1                            Cn1cc[nH]c1=S    active
2  O=C1CN(N=Cc2ccc([N+](=O)[O-])o2)C(=O)N1    active
3                          CCCC(CCC)C(=O)O    active
4       OC(Cn1cncn1)(Cn1cncn1)c1ccc(F)cc1F  inactive
5               Cn1c(=O)c2[nH]cnc2n(C)c1=O  inactive

---

read-out: Keratin 19 (KRT19), KRT19 (gene 3880); assay: LTEA_HepaRG_KRT19: Life Technologies and Expression Analysis (LTEA) Assay for Keratin 19 (KRT19) using HepaRG (AID 2283512); conditions: mRNA level, 48 h; actives raise or lower the signal
The source made the active and inactive calls. How the source made its calls: active means hit-call score of the fitted dose curve at least 0.9, where 1 is the maximum; inactive means score below 0.9.
Possible outcomes: T for active, F for inactive

> print(dat)
                             compound.smiles  category
 1                   CCc1ccc(O)c(C(C)(C)C)c1         F
 2  O=S(=O)(O)c1ccc(N=Nc2c(O)ccc3cc(S(=O)(=O)O)ccc23)cc1         F
 3              NC(=O)N1c2ccccc2C=Cc2ccccc21         F
 4  CCOc1ccc2[nH]cc(C(=O)NCc3ccccc3)c(=O)c2n1         T
 5                                 CCOC(N)=O         F
 6                        CCCCOC(=O)c1ccccc1         F
 7                Cn1c(=O)c2[nH]cnc2n(C)c1=O         F
 8                            c1ccc2ncccc2c1         F
 9  CCCCN1C(=O)[C@@H]([C@H](O)C2CCCCC2)NC(=O)C12CCN(Cc1ccc(Oc3ccc(C(=O)O)cc3)cc1)CC2         F
10  O=C(O)c1ccc2c(c1)nc(C(=O)NC1CCN(C3CC3)CC1)n2Cc1cc(-c2ccc(Cl)s2)on1         F
11  C[C@@H](Oc1ccc(CNC(=O)c2cccnc2Oc2ccc3c(c2)OCO3)c(F)c1)C(=O)O         F
12                                   OCCNCCO         T
13  CCCCCCOC(=O)CC(CC(=O)OCCCCCC)(OC(=O)CCC)C(=O)OCCCCCC         F
14                              COS(C)(=O)=O         F
15  NC(=O)N(O)[C@@H]1COc2cc(OCc3ccccc3)ccc21         F
16  COc1cc2c(c(OC)c1OC)-c1ccc(OC)c(=O)cc1[C@@H](NC(C)=O)CC2         F

---

read-out: CD69, CD69 (gene 969); assay: BSK_SAg_CD69: BioMAP Diversity Plus: SAg Assay for CD69 Biomarker Activity (AID 2283089); settings: primary human HUVEC with PBMC; actives raise or lower the signal
Active and inactive are the calls of the source. The calls were made as follows: active = hit-call score of the fitted dose curve at least 0.9, where 1 is the maximum; inactive = score below 0.9.
Outcome codes: yes = active, no = inactive

> print(dat)
                             compound.smiles  category
 1  CC(C)c1nnc2ccc(-c3ocnc3-c3cc(F)ccc3F)cn12       yes
 2  CC[C@H](C)C(=O)O[C@H]1C[C@H](O)C=C2C=C[C@H](C)[C@H](CC[C@@H](O)C[C@@H](O)CC(=O)O)[C@H]21        no
 3                                OCCOCCOCCO        no
 4                                   OCCNCCO        no
 5                             O=S1(=O)CCCO1        no
 6                             OCC(CO)(CO)CO        no
 7                            c1ccc2ncccc2c1        no
 8        c1ccc2c(c1)-c1cccc3c1c-2cc1ccccc13        no
 9  CCOc1ccc2[nH]cc(C(=O)NCc3ccccc3)c(=O)c2n1        no
10  Cc1nc(-c2ccccn2)ncc1C(=O)Nn1cc(C)c2cc(F)ccc21        no
11  CCCCCCCC/C=C\CCCCCCCC(=O)OC[C@@H](O)[C@H]1OC[C@H](O)[C@H]1O        no
12      Cc1ccc(S(=O)(=O)NC(=O)NN2CCCCCC2)cc1        no
13   O=C1CN(N=Cc2ccc([N+](=O)[O-])o2)C(=O)N1        no
14                           NNC(=O)c1ccncc1        no
15                                   NC(N)=O        no
16                        CCCCOC(=O)c1ccccc1        no
17                Cn1c(=O)c2[nH]cnc2n(C)c1=O        no
18  C=CCc1cc(S(=O)(=O)c2ccc(O)c(CC=C)c2)ccc1O       yes

---

read-out: ATP-citrate lyase (ACLY), ACLY (gene 47); assay: LTEA_HepaRG_ACLY: Life Technologies and Expression Analysis (LTEA) Assay for ATP-citrate lyase (ACLY) using HepaRG (AID 2283466); conditions: mRNA level, 48 h; actives raise or lower the signal
The source made the active and inactive calls. The calls were made as follows: active = hit-call score of the fitted dose curve at least 0.9, where 1 is the maximum; inactive = score below 0.9.
Labels: true (1) for active, false (0) for inactive

> print(dat)
                                    compound   category
 1              NC(=O)N1c2ccccc2C=Cc2ccccc21  false (0)
 2                                OCc1ccccc1  false (0)
 3  CCCCN1C(=O)[C@@H]([C@H](O)C2CCCCC2)NC(=O)C12CCN(Cc1ccc(Oc3ccc(C(=O)O)cc3)cc1)CC2   true (1)
 4                 CC1(C)C(=O)N(Cl)C(=O)N1Cl  false (0)
 5                             OCC(CO)(CO)CO  false (0)
 6               CCCCCCCCCCCCCCCCOS(=O)(=O)O  false (0)
 7            CC(C)CC(C)O (stereo not drawn)  false (0)
 8  NC(=O)N(O)[C@@H]1COc2cc(OCc3ccccc3)ccc21  false (0)
 9        c1ccc2c(c1)-c1cccc3c1c-2cc1ccccc13   true (1)
10                                 CCOC(N)=O  false (0)
11                   CCc1ccc(O)c(C(C)(C)C)c1  false (0)
12  CCCOc1ccc(S(=O)(=O)N2CCN(CC)CC2)cc1-c1nc2c(CC)n(Cc3ccccn3)nc2c(=O)[nH]1   true (1)
13  C=CCc1cc(S(=O)(=O)c2ccc(O)c(CC=C)c2)ccc1O  false (0)

---

assay: ATG_TCF_b_cat_CIS: Attagene CIS-FACTORIAL HepG2 Assay for human T-Cell-Factor with beta-catenin (TCF/b-cat) (AID 2282965); conditions: HepG2 TCF/beta-catenin cis-reporter transcription, actives raise or lower the signal
The source made the active and inactive calls. Rule for the calls: active = hit-call score of the fitted dose curve at least 0.9, where 1 is the maximum; inactive = score below 0.9.
Outcome codes: true (1) = active, false (0) = inactive

> print(dat)
                                    molecule   category
 1  NC(=O)N(O)[C@@H]1COc2cc(OCc3ccccc3)ccc21  false (0)
 2                                CCCCCCCCCC  false (0)
 3  C=CCc1cc(S(=O)(=O)c2ccc(O)c(CC=C)c2)ccc1O   true (1)
 4        c1ccc2c(c1)-c1cccc3c1c-2cc1ccccc13  false (0)
 5  Cc1nc(-c2ccccn2)ncc1C(=O)Nn1cc(C)c2cc(F)ccc21  false (0)
 6  CC[C@H](C)C(=O)O[C@H]1C[C@H](O)C=C2C=C[C@H](C)[C@H](CC[C@@H](O)C[C@@H](O)CC(=O)O)[C@H]21  false (0)
 7                                OCCOCCOCCO  false (0)
 8  COc1cc(C(C)C)c2c(c1)S(=O)(=O)N(COc1cc(=O)n3cccc(OCCN4CCCCC4)c3n1)C2=O   true (1)
 9  O=S(=O)(O)CCC(F)(F)C(F)(F)C(F)(F)C(F)(F)C(F)(F)C(F)(F)F  false (0)
10                   CCc1ccc(O)c(C(C)(C)C)c1  false (0)
11         FC(F)(F)COC(OCC(F)(F)F)OCC(F)(F)F  false (0)
12  CCCOc1ccc(S(=O)(=O)N2CCN(CC)CC2)cc1-c1nc2c(CC)n(Cc3ccccn3)nc2c(=O)[nH]1   true (1)
13      Cc1ccc(S(=O)(=O)NC(=O)NN2CCCCCC2)cc1  false (0)
14                             O=S1(=O)CCCO1  false (0)
15                              CCCCCOC(C)=O  false (0)
16                             CCCCCCCCN(C)C  false (0)
17                                  O=C(O)CO  false (0)
18  FC(F)(F)C(F)(F)C(F)(F)C(F)(F)C(F)(F)C(F)(F)I  false (0)
19  CC(C)C(=O)Nc1ccc([N+](=O)[O-])c(C(F)(F)F)c1  false (0)
20  CCCCC(CC)C(=O)OCCOCCOCCOC(=O)C(CC)CCCC (stereo not drawn)  false (0)
21  Nc1ccn([C@@H]2O[C@H](CO)[C@@H](O)[C@@H]2O)c(=O)n1  false (0)
22                    O=C(O)c1cccc(C(=O)O)c1  false (0)
23                           NNC(=O)c1ccncc1  false (0)
